Data provenance: ChEMBL document CHEMBL4406824

- System: Mycolicibacterium smegmatis
- PROTOCOL DESCRIPTION: Antimycobacterial activity against Mycobacterium smegmatis DSM 43465 after 120 hr by resazurin dye based microdilution method
- Type: functional
- CONDITION NOTES: DSM 43465, 120 h
Below is a list of entries, each paired with its recorded MIC value.

COMPOUND	MIC
O=C(Nc1ccccc1)Oc1ccc(Cl)cc1C(=O)Nc1ccc(C(F)(F)F)cc1	≤ 0.9 µM
O=C(NCCc1ccccc1)Oc1ccc(Cl)cc1C(=O)Nc1ccc(C(F)(F)F)cc1	≤ 0.84 µM

Read the next record carefully.
Form field - read-out: MIC; system: Mycolicibacterium smegmatis; submitted item: CO[C@H]1/C=C/O[C@@]2(C)Oc3c(C)c(O)c4c(O)c(c(/C=N/N5CCN(C)CC5)c(O)c4c3C2=O)NC(=O)/C(C)=C\C=C\[C@H](C)[C@H](O)[C@@H](C)[C@@H](O)[C@@H](C)[C@H](OC(C)=O)[C@@H]1C [RIFAMPIN]
12.5 to 25 µg/mL
